Hi there, I'd appreciate the recorded Ratio Ki for every entry that follows.
# System: HEK243
# ASSAY_PROCEDURE: Selectivity ratio of Ki for human alpha3beta4-nACHR expressed in […] cells to Ki for alpha4beta2-nACHR in rat cerebral cortex membranes
# Format: cell-based
Numbers only.

These solved cases illustrate the format of a correct answer.
CN1CCC[C@H]1COc1cc(O)cc(-c2ccccc2)c1    0.4
CN1CCC[C@H]1COc1cccc([N+](=O)[O-])c1    30
CN1CCC[C@H]1COc1cccc(C#CCCCCO)c1    2
CN1CCC[C@H]1COc1cc(-c2ccc(O)cc2)cc([N+](=O)[O-])c1    10
CN1CCC[C@H]1COc1cc(O)cc(Br)c1    0.8

# batch: return Ratio Ki for each of the 6 molecules below
1. CN1CCC[C@H]1COc1cc(-c2ccccc2)cc([N+](=O)[O-])c1
2. CN1CCC[C@H]1COc1cc(O)cc(C#CCCCCO)c1
3. CN1CCC[C@H]1COc1cc(Br)cc([N+](=O)[O-])c1
4. COc1cccc(OC[C@@H]2CCCN2C)c1
5. CN1CCC[C@H]1COc1cc(O)cc(-c2ccc(O)cc2)c1
6. CN1CCC[C@H]1COc1cc(C#CCCCCO)cc([N+](=O)[O-])c1

1: 3; 2: 131; 3: 8; 4: 7; 5: 8; 6: 85

====

Hi there, I'd appreciate the recorded Ki for every entry that follows.
# SYSTEM_TESTED: Neuronal acetylcholine receptor; alpha3/beta4 (Homo sapiens, UniProt P30926+P32297)
# Sequence (P30926 whole entry): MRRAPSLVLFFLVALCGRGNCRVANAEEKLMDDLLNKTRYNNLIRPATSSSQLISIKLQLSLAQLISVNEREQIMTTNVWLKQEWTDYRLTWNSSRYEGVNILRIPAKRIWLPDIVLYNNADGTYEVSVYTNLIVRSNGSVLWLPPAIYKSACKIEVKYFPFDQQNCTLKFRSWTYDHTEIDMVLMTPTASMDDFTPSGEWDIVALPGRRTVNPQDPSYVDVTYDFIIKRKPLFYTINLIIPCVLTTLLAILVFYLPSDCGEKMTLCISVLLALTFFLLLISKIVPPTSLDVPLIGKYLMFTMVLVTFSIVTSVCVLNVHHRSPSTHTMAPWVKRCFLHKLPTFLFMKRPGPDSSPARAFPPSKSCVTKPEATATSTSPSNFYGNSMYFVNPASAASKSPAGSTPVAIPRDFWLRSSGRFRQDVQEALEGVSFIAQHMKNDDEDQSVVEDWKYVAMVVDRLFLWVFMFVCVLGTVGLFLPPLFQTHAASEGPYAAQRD
# Sequence (P32297 whole entry): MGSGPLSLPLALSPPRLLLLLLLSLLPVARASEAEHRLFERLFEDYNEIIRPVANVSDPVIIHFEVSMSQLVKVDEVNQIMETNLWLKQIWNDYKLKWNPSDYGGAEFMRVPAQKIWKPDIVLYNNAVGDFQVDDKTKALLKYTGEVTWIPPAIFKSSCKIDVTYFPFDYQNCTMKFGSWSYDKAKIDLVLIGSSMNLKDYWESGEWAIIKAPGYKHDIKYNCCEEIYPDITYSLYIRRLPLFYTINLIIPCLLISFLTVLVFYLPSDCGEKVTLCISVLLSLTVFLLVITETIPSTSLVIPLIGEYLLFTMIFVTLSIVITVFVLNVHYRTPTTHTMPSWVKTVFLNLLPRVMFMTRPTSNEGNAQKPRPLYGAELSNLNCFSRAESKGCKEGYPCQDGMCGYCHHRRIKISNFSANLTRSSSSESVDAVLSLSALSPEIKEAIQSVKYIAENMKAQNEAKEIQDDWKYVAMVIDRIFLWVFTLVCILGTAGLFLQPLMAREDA
# ASSAY_PROCEDURE: Displacement of [3H]-epibatine from human alpha3beta4-nACHR expressed in […] cell membranes preincubated for 5 mins followed by overnight incubation with [3H]-epibatine by liquid scintillation counting analysis
One number for each entry, in nM.

These solved cases illustrate the format of a correct answer.
CN1CCC[C@H]1COc1cccc([N+](=O)[O-])c1    946
CN1CCC[C@H]1COc1cc(O)cc(Br)c1    147
COc1cccc(OC[C@@H]2CCCN2C)c1    4500
CN1CCC[C@H]1COc1cc(O)cc(-c2ccccc2)c1    200
CN1CCC[C@H]1COc1cc(Br)cc([N+](=O)[O-])c1    415

# batch: return Ki for each of the 5 compounds below
1. CN1CCC[C@H]1COc1cc(-c2ccccc2)cc([N+](=O)[O-])c1
2. CN1CCC[C@H]1COc1cc(O)cc(-c2ccc(O)cc2)c1
3. CN1CCC[C@H]1COc1cccc(C#CCCCCO)c1
4. CN1CCC[C@H]1COc1cc(-c2ccc(O)cc2)cc([N+](=O)[O-])c1
5. CN1CCC[C@H]1COc1cc(O)cc(C#CCCCCO)c1

1: 947; 2: 30; 3: 8300; 4: 122; 5: 3100

Record CN1CCC[C@H]1COc1cc(C#CCCCCO)cc([N+](=O)[O-])c1 . Reported Ki: 1200

Source of measurements: ChEMBL document CHEMBL3867476
